Would you kindly list IC50 for each of these compounds?
test-name: Inhibition of human type 2A secretory PLA2 using diheptanoyl thio-PC as substrate after 15 mins by ELISA

Could you tell me which IC50 is on file for Cc1ccc2[nH]cc(CNCc3cc(-c4ccc(F)c(C(F)(F)F)c4)no3)c2c1 ?
10.2 µM

Fc1ccc(-c2cc(CNCc3c[nH]c4ccc(Br)cc34)on2)cc1C(F)(F)F ?
17.2 µM

O=[N+]([O-])c1ccc(-c2cc(CNCc3c[nH]c4ccccc34)on2)cc1 ?
25.6 µM

c1ccc(-c2cc(CNCc3c[nH]c4ccccc34)on2)cc1 ?
30.6 µM

COc1ccc(-c2cc(CNCc3c[nH]c4ccccc34)on2)cc1 ?
18.2 µM

Fc1ccc(-c2cc(CNCc3c[nH]c4ccccc34)on2)cc1C(F)(F)F ?
21.5 µM

Cc1ccc2[nH]cc(CNCc3cc(-c4ccccc4)no3)c2c1 ?
27.9 µM

COc1ccc(-c2cc(CNCc3c[nH]c4ccc(C)cc34)on2)cc1 ?
24.6 µM

Cc1ccc2[nH]cc(CNCc3cc(-c4ccc([N+](=O)[O-])cc4)no3)c2c1 ?
19.4 µM

Cc1ccc(-c2cc(CNCc3c[nH]c4ccc(C)cc34)on2)cc1 ?
21.6 µM
